Target: P. falciparum apicoplast DNA polymerase (Pf-apPOL) (Plasmodium falciparum, UniProt Q8ILY1)
Sequence (Q8ILY1 entry or part of it): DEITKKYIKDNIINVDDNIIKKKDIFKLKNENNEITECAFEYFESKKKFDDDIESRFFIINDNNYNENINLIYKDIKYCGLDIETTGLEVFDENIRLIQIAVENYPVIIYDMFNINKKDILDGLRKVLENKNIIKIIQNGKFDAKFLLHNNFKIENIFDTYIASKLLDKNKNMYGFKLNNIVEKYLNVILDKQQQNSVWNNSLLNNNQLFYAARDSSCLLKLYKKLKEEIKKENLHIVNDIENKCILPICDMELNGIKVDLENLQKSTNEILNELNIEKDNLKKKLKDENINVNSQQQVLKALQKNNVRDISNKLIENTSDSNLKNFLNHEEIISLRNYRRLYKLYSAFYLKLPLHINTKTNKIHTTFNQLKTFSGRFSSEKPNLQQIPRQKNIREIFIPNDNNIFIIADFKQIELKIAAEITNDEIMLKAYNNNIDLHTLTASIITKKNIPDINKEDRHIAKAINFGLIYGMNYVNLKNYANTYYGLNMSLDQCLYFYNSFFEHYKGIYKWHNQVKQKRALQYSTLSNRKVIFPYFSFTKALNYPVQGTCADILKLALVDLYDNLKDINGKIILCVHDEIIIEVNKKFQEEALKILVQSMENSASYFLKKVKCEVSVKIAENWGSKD
Assay: Fluorescence-based high-throughput DNA polymerase assay (molecular beacon), primary screen and dose-response
Type: biochemical
Conditions: DRC-2; 5'; concentration 20
outcome-measure: % inhibition Apo pol 5' (%)
Numbers only here, please. The scale is %.

[ask] Requested read-out: % inhibition Apo pol 5'. Entry: O=C(Cn1ccc2c(=O)[nH]ccc21)Nc1cccc(Cl)c1 [Molecule 23, O=C(Cn1ccc2c1cc[nH]c2=O)Nc1cccc(c1)Cl]
[reply] 43

[ask] Which measured % inhibition Apo pol 5' value corresponds to COc1ccc(C(=O)N2CCc3c(nc4cc(-c5ccccc5Cl)[nH]n4c3=O)C2)cn1 ?
[reply] 47

[ask] Any idea what % inhibition Apo pol 5' was measured for COc1ccc(CNC(=O)Cn2nc3c(c2NC(=O)Cc2cccs2)CSC3)cc1 ?
[reply] 23

[ask] What value of measured % inhibition Apo pol 5' is listed for Cc1cccc(-c2nnc3ccc(NS(=O)(=O)c4ccc(C)c(C)c4)nn23)c1 ?
[reply] 26

[ask] Endpoint output: % inhibition Apo pol 5' of CCOc1ccc(/C=C2\N=C(c3cc([N+](=O)[O-])cc([N+](=O)[O-])c3)OC2=O)cc1 . Value?
[reply] 59

[ask] Consider the compound shown here: CO/N=C(\C(=O)N[C@@H]1C(=O)N2C(C(=O)[O-])=C(CSc3nc(=O)c([O-])nn3C)CSC12)c1csc(N)n1.[Na+].[Na+] (stereo partly shown) What is its recorded % inhibition Apo pol 5'?
[reply] 30

[ask] // returns reported % inhibition Apo pol 5' for input NS(=O)(=O)c1ccc(NC(=O)c2ccc(N3C(=O)CCC3=O)cc2)cc1
[reply] 40

[ask] Find the recorded % inhibition Apo pol 5' belonging to Cc1ccc(NC(=O)Cn2ccc3c(=O)[nH]ccc32)c(C)c1 and report it.
[reply] 44

###

Biological target: P. falciparum apicoplast DNA polymerase (Pf-apPOL) (Plasmodium falciparum, UniProt Q8ILY1)
Test: Fluorescence-based high-throughput DNA polymerase assay (molecular beacon), primary screen and dose-response;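 as to % inhibition apPOL 180': test concentration in µM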
Format: biochemical
Details: DRC-2; concentration 40; 180'
Recorded % inhibition apPOL 180', one value per entry.
Only the number, expressed in %, is required.

Worked cases, answers included:
# compound, % inhibition apPOL 180' (%)
rows = [
    ("O=C(Cn1ccc2c(=O)[nH]ccc21)Nc1ccccc1Cl [Molecule 19, O=C(Cn1ccc2c1cc[nH]c2=O)Nc1ccccc1Cl]", 77),
    ("COc1ccc(C=C2Oc3c(ccc4c3CN(Cc3ccco3)CO4)C2=O)c(OC)c1", 47),
    ("O=C1c2ccccc2C(=O)c2c1oc1c3c(ccc21)OCN(C1CCCC1)C3", 72),
    ("COc1ccc(NC(=O)Cn2nc3c(cc2=O)CCC3)cc1Cl", 78),
    ("COc1cc(/C=C2\\C(=O)N(c3ccc(C(=O)O)cc3)N=C2C(F)(F)F)ccc1OCC(C)C", 66),
    ("O=C(O)c1cc([N+](=O)[O-])c(N2CCN(c3cccc(C(F)(F)F)c3)CC2)c([N+](=O)[O-])c1", 56),
    ("COc1ccc(-c2occ(C(=O)O)c2C(=O)O)cc1", 77),
]

# evaluate next
[ask] Please provide the recorded % inhibition apPOL 180' for Oc1cccnc1/N=C/c1cc(I)cc(I)c1O , tested on P. falciparum apicoplast DNA polymerase (Pf-apPOL) (Plasmodium falciparum, UniProt Q8ILY1).
[reply] 74
